This listing pairs binders with measured kon.
- EXPERIMENTAL_TARGET: T1, Human PD-L1 Dimer (human, UniProt Q9NZQ7 19-239)
- T1 construct: also called hPD-L1 dimer; hPD-L1-hFc
- T1 sequence (Q9NZQ7 19-239): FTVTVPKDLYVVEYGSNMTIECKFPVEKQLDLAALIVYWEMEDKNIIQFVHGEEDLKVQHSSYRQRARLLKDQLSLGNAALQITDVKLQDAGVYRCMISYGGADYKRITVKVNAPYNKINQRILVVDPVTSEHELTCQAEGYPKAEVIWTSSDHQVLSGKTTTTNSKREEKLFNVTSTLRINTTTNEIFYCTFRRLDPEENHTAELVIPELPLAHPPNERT
- TEST_DETAILS: SPR (Biacore), mAb captured, 37C
State the answer as a number, implicitly in M⁻¹ s⁻¹.

{"columns": ["BINDER", "ASSAY_ENDPOINT", "UNIT_SPEC", "VALUE_REPORTED"],
 "data": [
  ["H2aM8310N (antibody, mouse IgG2, V domains shown, also called H2M8310N) VH: QVQLVQSGAEVKKPGASVQVSCKASGYSFTGYYIHWVRQAPGQGLEWMGWINPNSGTKKYAHKFQGRVTMTRDTSIDTAYMILSSLISDDTAVYYCARDEDWNFGSWFDSWGQGTLVTVSS VL: DIVMTQTPLSSPVTLGQPASISCRSSQTLVHGDGNTYLSWIQQRPGQPPRLLIYKVSNQFSGVPDRFSGSGAGTDFTLKISRVEAEDVGLYFCMQATHFPITFGQGTRLEIK", "kon", "M⁻¹ s⁻¹", 481000]
]}

Please examine the following record next.
Exercise: Please give measured kon of the following entry: H2aM8323N (antibody, mouse IgG2, V domains shown, also called H2M8323N) VH: QVQLVQSGAEVKMPGSSVRVSCKASGGIFSSSTISWVRQAPGQGLEWMGEIIPVFGTVNYAQKFQDRVIFTADESTTTAYMELSSLKSGDTAVYFCARNWGLGSFYIWGQGTMVTVSS VL: EIVLTQSPGTLSLSPGERATLSCRASQSFNFNYLAWYQQKPGQAPRLLIYGASSRATGIPDRFSGSGSGTDFTLTINRLEPEDFGVFYCQQYESAPWTFGQGTKVEIK
Solution: 4.32e+06
